test: Water solubility; assay type: physicochemical; conditions: distilled water; in water; read-out: Water solubility (transparent solution in water at concentrations up to)

>  <compound>
COc1c(OC(=O)CN(C)C)c(C)c(C/C=C(\C)CC/C=C(\C)CC/C=C(\C)CC/C=C(\C)CC/C=C(\C)CC/C=C(\C)CC/C=C(\C)CC/C=C(\C)CC/C=C(\C)CCC=C(C)C)c(OC(=O)CN(C)C)c1OC [UqH-DMG]

>  <solubility at 24 h>
≤ 5 mM

$$$$

---

assay: Enzymatic hydrolysis of UqH-derivatives in rat liver microsomes; type: in vitro ADME; conditions: pH 7.4, 37 °C, Michaelis–Menten fit
Reported Km values for a set of molecules

>  <smiles-string>
COc1c(O)c(C)c(C/C=C(\C)CC/C=C(\C)CC/C=C(\C)CC/C=C(\C)CC/C=C(\C)CC/C=C(\C)CC/C=C(\C)CC/C=C(\C)CC/C=C(\C)CCC=C(C)C)c(OC(=O)CN(C)C)c1OC

>  <Km / µM>
4630

$$$$
>  <smiles-string>
COc1c(O)c(C/C=C(\C)CC/C=C(\C)CC/C=C(\C)CC/C=C(\C)CC/C=C(\C)CC/C=C(\C)CC/C=C(\C)CC/C=C(\C)CC/C=C(\C)CCC=C(C)C)c(C)c(OC(=O)CN(C)C)c1OC

>  <Km / µM>
75.1

$$$$

---

assay: Enzymatic hydrolysis of UqH-derivatives in human liver microsomes; assay type: in vitro ADME; details: pH 7.4, 37 °C, Michaelis–Menten fit

>  <smiles-string>
COc1c(O)c(C/C=C(\C)CC/C=C(\C)CC/C=C(\C)CC/C=C(\C)CC/C=C(\C)CC/C=C(\C)CC/C=C(\C)CC/C=C(\C)CC/C=C(\C)CCC=C(C)C)c(C)c(OC(=O)CN(C)C)c1OC

>  <readout-units>
µM

>  <Km>
72.2

$$$$

---

test: Enzymatic hydrolysis of UqH-derivatives in rat liver microsomes; assay type: in vitro ADME; conditions: pH 7.4, 37 °C, calculated using generated UqH-10 levels after sequential hydrolysis

>  <smiles-string>
COc1c(OC(=O)CN(C)C)c(C)c(C/C=C(\C)CC/C=C(\C)CC/C=C(\C)CC/C=C(\C)CC/C=C(\C)CC/C=C(\C)CC/C=C(\C)CC/C=C(\C)CC/C=C(\C)CCC=C(C)C)c(OC(=O)CN(C)C)c1OC

>  <readout-units>
mM

>  <Km>
3.89

$$$$
